Target: Homeodomain-interacting protein kinase 3 (Homo sapiens) (UniProt Q9H422)
Sequence (Q9H422 whole entry, looked up): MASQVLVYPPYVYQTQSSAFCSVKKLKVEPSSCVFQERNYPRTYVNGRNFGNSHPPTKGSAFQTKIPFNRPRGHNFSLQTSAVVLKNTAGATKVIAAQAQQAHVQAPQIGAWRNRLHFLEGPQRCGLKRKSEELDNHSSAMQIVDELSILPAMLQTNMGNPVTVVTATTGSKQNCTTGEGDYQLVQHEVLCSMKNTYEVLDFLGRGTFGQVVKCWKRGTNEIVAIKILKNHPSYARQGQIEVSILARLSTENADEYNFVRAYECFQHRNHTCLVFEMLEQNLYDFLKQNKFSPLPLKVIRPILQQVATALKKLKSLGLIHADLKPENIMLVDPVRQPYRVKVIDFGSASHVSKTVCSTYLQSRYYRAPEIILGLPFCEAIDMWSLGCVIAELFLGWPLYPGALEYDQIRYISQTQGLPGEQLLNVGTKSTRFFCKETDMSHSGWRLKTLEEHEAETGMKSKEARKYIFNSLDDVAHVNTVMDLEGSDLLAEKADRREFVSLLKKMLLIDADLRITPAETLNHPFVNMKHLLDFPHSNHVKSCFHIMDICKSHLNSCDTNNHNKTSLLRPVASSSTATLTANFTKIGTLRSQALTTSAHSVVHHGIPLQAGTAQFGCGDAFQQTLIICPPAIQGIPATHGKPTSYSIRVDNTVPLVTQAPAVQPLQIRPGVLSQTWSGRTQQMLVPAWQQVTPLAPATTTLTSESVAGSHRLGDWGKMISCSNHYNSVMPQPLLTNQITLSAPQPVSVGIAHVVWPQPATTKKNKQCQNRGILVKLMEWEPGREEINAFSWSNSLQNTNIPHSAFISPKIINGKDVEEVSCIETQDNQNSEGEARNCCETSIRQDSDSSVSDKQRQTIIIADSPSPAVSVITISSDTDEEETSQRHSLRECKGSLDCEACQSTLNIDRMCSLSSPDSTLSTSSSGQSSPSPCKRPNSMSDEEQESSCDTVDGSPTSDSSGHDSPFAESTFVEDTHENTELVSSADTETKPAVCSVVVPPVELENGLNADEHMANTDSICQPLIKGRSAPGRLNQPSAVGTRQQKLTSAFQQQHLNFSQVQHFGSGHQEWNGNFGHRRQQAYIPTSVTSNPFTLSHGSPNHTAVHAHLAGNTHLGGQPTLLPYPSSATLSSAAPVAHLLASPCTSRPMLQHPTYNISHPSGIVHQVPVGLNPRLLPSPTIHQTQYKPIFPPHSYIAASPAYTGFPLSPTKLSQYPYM
Test: Inhibition of HIPK3 assessed as residual enzyme activity at 10 uM relative to untreated control
Recorded Activity values for a group of molecules are listed next.
I only need the number, in %, no unit after it.

*Q* Given c1ccc2c(c1)[nH]c1c3cc[nH]c3ccc21 , report its Activity on Homeodomain-interacting protein kinase 3 (Homo sapiens) (UniProt Q9H422).
*A* 106

*Q* Given O=Cc1c[nH]c2ccc3c4ccccc4[nH]c3c12 , report its Activity on Homeodomain-interacting protein kinase 3 (Homo sapiens) (UniProt Q9H422).
*A* 100

*Q* Given O=Cc1c[nH]c2c1ccc1c3ccccc3[nH]c12 , report its Activity on Homeodomain-interacting protein kinase 3 (Homo sapiens) (UniProt Q9H422).
*A* 64

*Q* Given c1ccc2c(c1)[nH]c1c2ccc2cc[nH]c21 , report its Activity on Homeodomain-interacting protein kinase 3 (Homo sapiens) (UniProt Q9H422).
*A* 97

###

Test: Inhibition of AMPK assessed as residual enzyme activity at 10 uM relative to untreated control
measuredQuantity: Activity (%)
I only need the number, in %, no unit after it.

See these solved cases before continuing.
| compoundStructure | Activity, % |
| --- | --- |
| O=Cc1c[nH]c2c1ccc1c3ccccc3[nH]c12 | 59 |
| c1ccc2c(c1)[nH]c1c2ccc2cc[nH]c21 | 80 |
| O=Cc1c[nH]c2ccc3c4ccccc4[nH]c3c12 | 85 |

*Q* Return the recorded Activity value; entry: c1ccc2c(c1)[nH]c1c3cc[nH]c3ccc21
*A* 79

###

Recorded Activity values for a group of compounds are listed next.
Experiment: Inhibition of PHK assessed as residual enzyme activity at 10 uM relative to untreated control

| compoundStructure | measuredQuantity | observedResult |
| --- | --- | --- |
| c1ccc2c(c1)[nH]c1c3cc[nH]c3ccc21 | Activity | 71% |
| O=Cc1c[nH]c2ccc3c4ccccc4[nH]c3c12 | Activity | 88% |
| O=Cc1c[nH]c2c1ccc1c3ccccc3[nH]c12 | Activity | 33% |

Please look at the following compound next.
*Q* Return the recorded Activity value; entry: c1ccc2c(c1)[nH]c1c2ccc2cc[nH]c21
*A* 90%

###

Recorded Activity values for a group of compounds are listed next.
Target: Inhibitor of nuclear factor kappa-B kinase subunit beta (Homo sapiens)
Assay: Inhibition of IKK-beta assessed as residual enzyme activity at 10 uM relative to untreated control
I only need the number, in %, no unit after it.

*Q* Return the recorded Activity value; entry: c1ccc2c(c1)[nH]c1c2ccc2cc[nH]c21
*A* 106

*Q* Return the recorded Activity value; entry: O=Cc1c[nH]c2ccc3c4ccccc4[nH]c3c12
*A* 108

*Q* Return the recorded Activity value; entry: O=Cc1c[nH]c2c1ccc1c3ccccc3[nH]c12
*A* 71

*Q* Return the recorded Activity value; entry: c1ccc2c(c1)[nH]c1c3cc[nH]c3ccc21
*A* 110

###

Recorded Activity values for a group of compounds are listed next.
Biological target: Mitogen-activated protein kinase 14 (Homo sapiens) (UniProt Q16539)
Sequence (Q16539 whole entry): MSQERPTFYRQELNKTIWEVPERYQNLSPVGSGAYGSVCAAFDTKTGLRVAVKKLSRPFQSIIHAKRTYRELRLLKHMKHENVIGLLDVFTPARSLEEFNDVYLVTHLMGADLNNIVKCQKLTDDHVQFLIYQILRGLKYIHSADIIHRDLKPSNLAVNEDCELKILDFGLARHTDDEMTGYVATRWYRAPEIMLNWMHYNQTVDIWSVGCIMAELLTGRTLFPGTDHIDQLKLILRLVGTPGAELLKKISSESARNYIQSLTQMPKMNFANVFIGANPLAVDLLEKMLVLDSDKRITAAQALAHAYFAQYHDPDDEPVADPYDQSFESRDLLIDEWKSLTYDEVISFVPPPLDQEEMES
Assay: Inhibition of p38alpha assessed as residual enzyme activity at 10 uM relative to untreated control
I only need the number, in %, no unit after it.

| compoundStructure | tgt | measuredQuantity | observedResult |
| --- | --- | --- | --- |
| c1ccc2c(c1)[nH]c1c3cc[nH]c3ccc21 | Mitogen-activated protein kinase 14 (Homo sapiens) (UniProt Q16539) | Activity | 115 |
| O=Cc1c[nH]c2ccc3c4ccccc4[nH]c3c12 | Mitogen-activated protein kinase 14 (Homo sapiens) (UniProt Q16539) | Activity | 108 |
| O=Cc1c[nH]c2c1ccc1c3ccccc3[nH]c12 | Mitogen-activated protein kinase 14 (Homo sapiens) (UniProt Q16539) | Activity | 102 |

*Q* Given c1ccc2c(c1)[nH]c1c2ccc2cc[nH]c21 , report its Activity on Mitogen-activated protein kinase 14 (Homo sapiens) (UniProt Q16539).
*A* 108
